Origin of measurements: paper PMC8704880

Test system: MCF-7 human breast cancer cell line
Experiment: MTT cytotoxicity assay, MCF-7
Assay type: cell-based
Conditions: MCF7, 48 h, medium without FBS, read-out: IC50 (Means ± SD) MCF-7
Experimental: The cytotoxic activity of the compounds on cancer cell lines, including HT-29, MCF-7, A375, K562, andNCM460cell lines, was measured using the MTT assay with a small modification. […] After shaking the plates for 10 min at room temperature, the optical density value was measured spectrophotometrically at 570 nm using the microplate reader. The IC50 value (50% inhibitory concentration) was determined to evaluate the cell viability of these cell lines. […]
Just a reminder that ties go to class 0: only IC50 strictly below 400 µM counts as class 1.

Consider the following illustrative entries.
compound: CC[C@@H](O)C[C@H]1CC[C@@H]([C@H](C)C(=O)O[C@@H](CC)C[C@@H]2CC[C@H]([C@@H](C)C(=O)O)O2)O1 [Compound 5, homononactylhomononactate]
group label: class 1
--
compound: CCC[C@H](CC1CCC([C@H](C)C(=O)O)O1)O[Si](C)(C)C(C)(C)C (stereo partly drawn)
group label: class 1
--
compound: CCCCOC(=O)[C@@H](C)C1CCC(C[C@H](O)CC)O1 (stereo partly drawn)
group label: class 0

Given the entry CCOC(=O)[C@@H](C)C1CCC(C[C@@H](C)O)O1 (stereo partly drawn) , would its reported IC50 be below 400 µM?
class 0

Given the entry CCCCCCCCCCCCCCCCCCOC(=O)[C@@H](C)C1CCC(C[C@H](O)CC)O1 (stereo partly drawn) , would its reported IC50 be below 400 µM?
class 1

Bench note: check whether CCCCCCCCCCCCCCOC(=O)[C@@H](C)C1CCC(C[C@H](O)CC)O1 (stereo partly drawn) shows IC50 below 400 µM
class 0

Criterion: IC50 strictly below 400 µM. Is it met by CC[C@@H](O)CC1CCC([C@H](C)C(=O)OC(C)C)O1 (stereo partly drawn) ?
class 1

Criterion: IC50 strictly below 400 µM. Is it met by CC[C@@H](O)C[C@H]1CC[C@@H]([C@H](C)C(=O)O)O1 ?
class 1

* * *

Here the recorded pIC50 is given for each entry.
system: MCF-7 human breast cancer cell line; assay: MTT cytotoxicity assay, MCF-7; format: cell-based; settings: MCF7, 48 h, medium without FBS, read-out: IC50 (Means ± SD) MCF-7
Scale explanation: pIC50 corresponds to minus log10 of a concentration expressed in moles per litre.

molecule: C[C@H](C(=O)O)[C@@H]1CC[C@H](C[C@@H](C)O)O1 [Compound 2, nonactic acid]
measurement: 3.54

molecule: CC[C@@H](O)CC1CCC([C@H](C)C(=O)Nc2nc3ccccc3s2)O1 (stereo partly drawn) [Compound 19]
measurement: 3.57

Provide only the value of recorded pIC50 for CC[C@@H](O)CC1CCC([C@H](C)C(=O)Oc2ccc(-c3ccccc3)cc2)O1 (stereo partly drawn) [Compound 16]
3.81

Recall and state the measured pIC50 for CCOC(=O)[C@@H](C)[C@@H]1CC[C@H](C[C@H](O)CC)O1 [Compound 4, ethyl homononactate] .
4.40

Answer with reported pIC50 of CC[C@@H](O)CC1CCC([C@H](C)C(=O)Nc2ccccc2N)O1 (stereo partly drawn) [Compound 18]
3.52

# return recorded pIC50 for entry CC[C@H](O)CC(=O)CC[C@H](O)C(C)C(=O)O (stereo partly drawn) [Compound 1]
5.26

Please report pIC50 for the following molecule: CCCCCCCCCCOC(=O)[C@@H](C)C1CCC(C[C@@H](C)O)O1 (stereo partly drawn) [Compound 11]
4.47

Dear colleague, please send me the reported pIC50 for CC[C@@H](O)CC1CCC([C@H](C)C(=O)OCc2ccccc2)O1 (stereo partly drawn) [Compound 14] when you can.
3.95

Read off the recorded pIC50 for CC(C)CC1NC(=O)C2CCCN2C1=O (stereo not drawn) [Compound 7, cyclo-(Pro-Leu)]
4.10
